From: patent US8916575B2

# Measurement target: human TLR7 (Homo sapiens)
# Construct: expressed in transfected cells; host or cells: HEK293
# Sequence (Q9NYK1 27-1049): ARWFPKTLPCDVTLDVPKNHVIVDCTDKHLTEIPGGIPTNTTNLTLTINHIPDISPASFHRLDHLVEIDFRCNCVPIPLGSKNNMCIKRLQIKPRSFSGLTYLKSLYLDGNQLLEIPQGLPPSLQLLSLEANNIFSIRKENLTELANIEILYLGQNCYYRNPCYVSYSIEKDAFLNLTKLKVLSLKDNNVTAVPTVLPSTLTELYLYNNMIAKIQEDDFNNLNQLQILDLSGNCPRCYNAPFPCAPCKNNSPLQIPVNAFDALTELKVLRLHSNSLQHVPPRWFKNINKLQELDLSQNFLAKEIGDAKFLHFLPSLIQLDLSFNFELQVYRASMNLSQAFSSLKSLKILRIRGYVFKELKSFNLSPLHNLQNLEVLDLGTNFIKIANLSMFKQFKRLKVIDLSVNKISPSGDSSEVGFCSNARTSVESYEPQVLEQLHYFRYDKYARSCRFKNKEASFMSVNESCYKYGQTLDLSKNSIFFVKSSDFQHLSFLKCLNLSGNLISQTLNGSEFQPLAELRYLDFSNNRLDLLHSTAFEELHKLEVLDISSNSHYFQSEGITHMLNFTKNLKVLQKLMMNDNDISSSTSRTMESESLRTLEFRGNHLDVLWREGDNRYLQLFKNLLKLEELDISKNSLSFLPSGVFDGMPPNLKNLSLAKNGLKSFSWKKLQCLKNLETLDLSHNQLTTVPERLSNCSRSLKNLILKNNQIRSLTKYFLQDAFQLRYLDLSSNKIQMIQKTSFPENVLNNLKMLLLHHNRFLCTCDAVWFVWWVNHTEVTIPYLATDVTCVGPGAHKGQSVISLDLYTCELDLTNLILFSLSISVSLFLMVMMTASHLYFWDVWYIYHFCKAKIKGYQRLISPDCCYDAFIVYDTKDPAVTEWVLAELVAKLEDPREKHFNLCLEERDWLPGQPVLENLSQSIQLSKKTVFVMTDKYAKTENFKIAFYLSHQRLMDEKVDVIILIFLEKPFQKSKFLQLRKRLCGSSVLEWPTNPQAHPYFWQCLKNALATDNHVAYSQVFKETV
# Assay comment: TLR7 wild type NFκB-luc cellular reporter assay
# Type: cell-based
# Design: unit not given here
# Settings: HEK293 NFκB-luc reporter, 6 hours incubation; second part of table
// reported TLR7-wt (LEC) per item
Would you mind answering with just the numeric figure?

Solved entries (count: 5):
In [3]: df
Out[3]:
                                   molecule         measurement_target  assay_endpoint  measured_number
0  CCC[C@@H](CCO)Nc1nc(N)nc2c(F)cccc12 [Compound 63]  human TLR7 (Homo sapiens)   TLR7-wt (LEC)             0.29
1  CCC[C@@H](CCO)Nc1nc(N)nc2cccc(F)c12 [Compound 66]  human TLR7 (Homo sapiens)   TLR7-wt (LEC)             0.22
2  CCCCNc1nc(N)nc2cccc(CCc3cccc(OC)c3)c12 [Compound 97]  human TLR7 (Homo sapiens)   TLR7-wt (LEC)              0.6
3   CCCCNc1nc(N)nc2cccc(OC)c12 [Compound 9]  human TLR7 (Homo sapiens)   TLR7-wt (LEC)             0.41
4  CCCC[C@@H](CCO)Nc1nc(N)nc2cc(C)ccc12 [Compound 73]  human TLR7 (Homo sapiens)   TLR7-wt (LEC)             0.03

**Q:** Could you please provide reported TLR7-wt (LEC) for CCCCNc1nc(N)nc2ccc(C(C)=O)cc12 [Compound 22] ? Thanks!
**A:** 6.07

**Q:** Could you please provide reported TLR7-wt (LEC) for CCCCNc1nc(N)nc2cc(C(=O)N3CCOCC3)ccc12 [Compound 91] ? Thanks!
**A:** 0.13

**Q:** Could you please provide reported TLR7-wt (LEC) for CCC[C@@H](CCO)Nc1nc(N)nc2cc(OC)ccc12 [Compound 78] ? Thanks!
**A:** 0.20

**Q:** Could you please provide reported TLR7-wt (LEC) for CCC[C@@H](CCO)Nc1nc(N)nc2ccc(Oc3ccc(C(F)(F)F)cc3Cl)cc12 [Compound 27] ? Thanks!
**A:** 12.95

**Q:** Could you please provide reported TLR7-wt (LEC) for CCC[C@@H](CO)Nc1nc(N)nc2ccc(OC)cc12 [Compound 57] ? Thanks!
**A:** 10.77
